Data credit: the supplement of paper PMC10567573

B1: ZNF193 (parent)
chain: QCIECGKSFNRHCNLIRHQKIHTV

Variants of: B1
Test: protein stability index of a GFP-peptide fusion (GPS, HEK-293T) (PSI 1-6); higher = more stable;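 note: lentivirally expressed fusions sorted by FACS into six bins by GFP to DsRed ratio, PSI derived from sequencing read proportions per bin multiplied by bin number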
Settings: c terminus: a fixed tail appended
In this section, each of the variants is paired with its reported protein stability index.

# example entries with known answers
QCIECGKSFNRHCNLGRHQKIHTV [I16G] = 3.02
QCIECGKSFNRHCNLIRHQGIHTV [K20G] = 2.38
QCIECGKIFNRHCNLIRHQKIHTV [S8I] = 4.05
QCIECGKSFNRHCNLERHQKIHTV [I16E] = 3.44
QCIECGKSFNRHCNLIRHQKIPTV [H22P] = 2.62

Next:
Request: Recorded protein stability index of QCIECGKSFNRHGNLIRHQKIHTV [C13G] , please.
Result: 3.75
